Test: Pharmacokinetic analysis in ferrets after a single oral administration of BXM
Type: in vivo, ferret
Reported conditions: plasma, po, 30 mg/kg, single oral BXM 30 mg/kg, 5% SDS water vehicle, mean of four ferrets; read-out: C max
Recorded metric: Cmax

[[record]]
compound = "COC(=O)OCOc1c2n(ccc1=O)N([C@@H]1c3ccccc3SCc3c1ccc(F)c3F)[C@@H]1COCCN1C2=O [BXM, Baloxavir marboxil]"
val = "298 ng/mL"


###

Test: Pharmacokinetic analysis in ferrets after a single oral administration of BXM
Type: in vivo, ferret
Reported conditions: ferret, plasma, oral, 30 mg/kg, single oral BXM 30 mg/kg, mean of four ferrets; read-out: C 24 h
Protocol: One day prior to administration, group assignment was carried out taking body weight into account. Under isoflurane anesthesia, fasted ferrets (four per group) received BXM (10 or 30 mg/5 mL/kg) suspension orally using an intragastric tube. […] The concentrations of BXA and BXM in plasma were determined by liquid chromatography‐tandem mass spectrometry (LC‐MS/MS). The lower limit of quantification of BXA and BXM in ferret plasma was 0.5 ng/mL. […]
Recorded metric: concentration at 24 h (nM)

[[record]]
molecular_string = "COC(=O)OCOc1c2n(ccc1=O)N([C@@H]1c3ccccc3SCc3c1ccc(F)c3F)[C@@H]1COCCN1C2=O"
val = 63.1

